test system: C. glabrata; experiment: Checkerboard FIC assay in combination with fluconazole (MIC alone and in combination, FICI); assay type: cell-based, Candida glabrata; conditions: C. glabrata; FICI calculated using a fluconazole MIC of 16 μg/mL
Reported property: FICI of combination resulting in fluconazole MIC of: 8 ug/mL

Completed entries (count: 8):
Compound	Observed result
COCCOCCOCCOCCC(=O)Nc1ccc(CCCCc2ccc(CC(=O)NO)cc2)cc1	0.625
O=C(Cc1csc(CCCCc2ccccc2)n1)NO	0.625
COc1ccc(CCCCc2ccc(CC(=O)NO)cc2)cc1OC	0.375
CC(C(=O)NO)c1ccc(CCCCc2ccccc2)cc1 (centres unmarked)	0.370
O=C(Cc1ccc(CCCC(O)c2ccccc2)cc1)NO (centres unmarked)	0.375
CC(=O)Nc1ccc(CCCCc2ccc(CC(=O)NO)cc2)cc1	0.563
O=C(Cc1ccc(CCCCc2ccc(C(=O)N3CCOCCOCCOCCOCCOCC3)cc2)cc1)NO	0.313
Nc1cccc(CCCCc2ccc(CC(=O)NO)cc2)c1	0.625

P: O=C(Cc1ccc(C(O)CCCc2ccccc2)cc1)NO (centres unmarked)
Q: COCCOCCOCCNC(=O)c1ccc(CCCCc2ccc(CC(=O)NO)cc2)cc1
// which entry has the larger FICI of combination resulting in fluconazole MIC of: 8 ug/mL value, P or Q ? Bench note: the answer is the label of the chosen record.
Q
